System: WaGa
Experiment: qHTS assay to identify novel small-molecules to repurpose for Merkel cell carcinoma treatment (AID 1296009); also: nearly all actives have a fitted effect of over 60% in size
Details: MCC and control cell lines, CellTiter-Glo viability, 72 h; series mostly up to 46 µM
Results filed as inconclusive are left out. Calls of active or inactive are those of the source. Calls follow the shape of the dose curve; as a rule, active = well fitted inhibition curve with a large enough effect; inconclusive = small, poorly fitted or top-dose-only effect; inactive = flat fitted curve, though single readings scatter.
// classify into active, inactive

1) Cc1cc(CC(=O)O)n(C)c1C(=O)c1ccc(Cl)cc1 :: inactive

[in] Field: outcome | Entry: "CCCCN(CCCC)CCCOC(=O)c1ccc(N)cc1"
[out] inactive

[in] Try the compound O=C1OC(OC(=O)c2cccnc2Nc2cccc(C(F)(F)F)c2)c2ccccc21 (stereo unspecified)
[out] inactive

[in] Follow-up item: "CCN(CC)CCNC(=O)c1c(C)[nH]c(/C=C2\C(=O)Nc3ccc(F)cc32)c1C"
[out] active

[in] Okay, and "[O-][n+]1cccc(CO)c1" ?
[out] inactive

[in] Moving on to CNCCC(Oc1ccc(C(F)(F)F)cc1)c1ccccc1 (stereo unspecified)
[out] active
